Experiment: protein stability index of a GFP-peptide fusion (GPS, HEK-293T) (PSI 1-6); higher = more stable;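 also: 24-mer peptide tiles fused after GFP, lentivirally expressed, FACS-sorted into six equal bins by GFP/DsRed ratio, decoded by Illumina sequencing, PSI is the read-weighted mean bin number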
Details: treatment: MLN4924 1 uM, 8 h; c terminus: a fixed tail appended
measured quantity: protein stability index
The answer should be a number; do not append a unit.

Please review the following examples before continuing.
{"item sequence": "SPKTNGHIENGPFSLEQQLDDEDD [SRPK2]", "measured quantity": "protein stability index", "observed": 5.56}
{"item sequence": "NWIELLSGETWNPLKLHYQLRNVR [GOLPH3]", "measured quantity": "protein stability index", "observed": 2.36}
{"item sequence": "VYTRHGVPISVTGIAQVKIQGQNK [FLOT1]", "measured quantity": "protein stability index", "observed": 2.63}
{"item sequence": "QKVDQFDPFTVPTISFICRELDAI [PRIM1]", "measured quantity": "protein stability index", "observed": 2.31}

Reported protein stability index for EESGSSSASEEEDTKPKPTKRKRK [INTS3] was 5.57

Reported protein stability index for KEFILTDEEVQRKREMILKRKEEE [VDR] was 5.38

Reported protein stability index for LFLGRILSLTSSASRLLTTALTSF [FANCE] was 2.27

Reported protein stability index for DDATCRLYDLRADREVAIYSKESI [GNB5] was 3.4

Reported protein stability index for IPGHGGIMDRFDCQYLMATFVNVY [CDS2] was 2.54

Reported protein stability index for IKMAMVACGDAFTVAIGAESEVYS [NEK8] was 2.57

Reported protein stability index for ADNMEFEQCIKLWLHALHLRQKGN [FEM1B] was 2.72

Reported protein stability index for `QLHPPRWYSRLQACQWGGNFLAFS` was 2.26

Reported protein stability index for EEKEAWYREESDSLGQDLRRLRQE [DAPK3] was 5.35

----------
Assay: protein stability index of a GFP-peptide fusion (GPS, HEK-293T) (PSI 1-6); higher = more stable
Conditions: treatment: MLN4924 1 uM, 8 h; c terminus: a fixed tail appended
measured quantity: protein stability index
The answer should be a number; do not append a unit.

{"item sequence": "RQFEFYLEEMILPLMVASAQSGER [BTBD10]", "observed": 3.2}
{"item sequence": "AVQKTDEGHPFKAYLELEITLSQE [RTN1]", "observed": 2.56}
{"item sequence": "PPSARHRAHPPQRPASSGGAHTLV [KCNA3]", "observed": 4.1}
{"item sequence": "LDDLSQKLKPLGEAEREFILNLKK [NLN]", "observed": 3.07}
{"item sequence": "RQQGNPGHRSIYLALKLPDGSYAL [ADAMTS4]", "observed": 2.2}

// moving on: another record for protein stability index
Reported protein stability index for GHLCAAEVVKIRDSFSNQNTETKD [DLC1] was 4.14

----------
Test: protein stability index of a GFP-peptide fusion (GPS, HEK-293T) (PSI 1-6); higher = more stable
Settings: treatment: MLN4924 1 uM, 8 h; c terminus: a fixed tail appended
measured quantity: protein stability index
The answer should be a number; do not append a unit.

Please review the following examples before continuing.
{"item sequence": "WLHALHLRQKGNRNTHKDLLRFAQ [FEM1B]", "measured quantity": "protein stability index", "observed": 2.35}
{"item sequence": "LIKNFHQYSVEGGKETLTPSELRD [S100A14]", "measured quantity": "protein stability index", "observed": 4.3}

// moving on: another record for protein stability index
Reported protein stability index for SCGGDGGIVVWNMDVERQETPEWL [WDFY2] was 3.79
